test: Cytotoxicity against human HeLa cells assessed as cell viability at 10 uM after 24 hrs by MTT assay; type: cell-based; settings: read-out: Activity
Where a SMILES comes first, the peptide text is derived from it.

>  <Compound>
CC[C@H](C)[C@@H]1NC(=O)[C@@H]2CCCN2C(=O)[C@H]([C@@H](C)O)NC(=O)[C@H](CC(C)C)NC(=O)[C@@H]2CCCN2C(=O)[C@H](Cc2ccccc2)NC(=O)[C@H](Cc2c[nH]c3ccccc23)NC(=O)[C@@H]2CCCN2C1=O [STYLISSAMIDE X] (cyclo(FPLTPIPW))

>  <viability at 24 h, 10 µM>
> 75%

$$$$
